- Target Entity: OGG1-2NA (untagged) (human, UniProt O15527 1-345, N149A;N150A)
- Sequence (O15527 whole entry N149A/N150A): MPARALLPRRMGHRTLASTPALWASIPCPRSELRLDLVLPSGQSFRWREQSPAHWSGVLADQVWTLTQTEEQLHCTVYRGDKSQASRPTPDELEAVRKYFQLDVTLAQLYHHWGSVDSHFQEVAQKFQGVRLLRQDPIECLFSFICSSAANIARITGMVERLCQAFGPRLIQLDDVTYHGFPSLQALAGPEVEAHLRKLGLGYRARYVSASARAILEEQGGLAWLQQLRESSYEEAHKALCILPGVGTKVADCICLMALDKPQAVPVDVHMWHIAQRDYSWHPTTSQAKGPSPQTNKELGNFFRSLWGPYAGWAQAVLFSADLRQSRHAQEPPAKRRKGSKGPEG
- Protocol Details: EMSA
Test Readout: pKd
Bear in mind: pKd is minus log10 of a mol/L concentration; give just that figure.

Data request, read-out pKd, for 24-mer 8-oxoG:C duplex (dsDNA, 8-oxoG at position 13 of strand 1 (opposite C)) DNA 1: CTGATCGATGACGCCTGACATGAT DNA 2: ATCATGTCAGGCGTCATCGATCAG
8.20
